Items are presented alongside their recorded pEC50.
Test system: ZIKV replicon in Vero cells
Measurement Protocol: ZIKV Replication Inhibition Assay (replicon, NanoLuc)
Cond: Zika virus, Vero, 72 h, read-out: Zika Replicon EC50
pEC50: −log10 of the molar value.

Worked cases, pEC50 given:
Cc1ccc(NC(=O)[N-]c2c[n+](Cc3ccc(-c4c(C)noc4C)cn3)no2)cc1C(F)(F)F = > 7.00
C[C@H](c1ccc(Br)cc1)[n+]1cc([N-]C(=O)Nc2cccc(C(F)(F)F)c2)on1 = 4.70 to 6.00
COc1cc(NC(=O)[N-]c2c[n+](C(C)Cc3ccccc3)no2)cc(C(F)(F)F)c1 (stereo not shown) = < 4.70

Shift focus to the following entry.
Sample O=C([N-]c1c[n+](Cc2ccc(-c3ccnnc3)cn2)no1)Nc1cccc(C(F)(F)F)c1 , system: ZIKV replicon in Vero cells. Its pEC50 is 6.00 to 7.00
